assayed-target: UniProt Q4U254
method-description: 50% effective concentration required to inhibit Human Rhinovirus 1A Protease 3C
pEC50: −log10 of the molar value.

# input-smiles, assayed-target, pEC50
measured = [
    ("CCOC(=O)/C=C/[C@H](C[C@@H]1CCNC1=O)NC(=O)C1=Cc2cc(Cl)ccc2OC1", "UniProt Q4U254", 5.29),
]

---

assayed-target: Human rhinovirus A protease (Human rhinovirus sp.)
method-description: Ability to inactivate Human Rhinovirus 2 Protease 3C
The entries below come with measured K obs / 1 values attached.

# molecule, K obs / 1
data = [
    ("CCOC(=O)/C=C/[C@H](CCC(N)=O)NC(=O)C(Cc1ccccc1)NC(=O)[C@H](CC(C)C)NC(=O)OCc1ccccc1 (some centres undefined)", "2000 M⁻¹ s⁻¹"),
    ("CCOC(=O)/C=C/[C@H](C[C@@H]1CCNC1=O)NC(=O)c1ccc2ccccc2c1", "110 M⁻¹ s⁻¹"),
    ("CCOC(=O)/C=C/[C@H](C[C@@H]1CCNC1=O)NC(=O)C1=Cc2cc(Cl)ccc2OC1", "385 M⁻¹ s⁻¹"),
    ("CCOC(=O)/C=C/[C@H](C[C@@H]1CCNC1=O)NC(=O)C1=Cc2cc(Br)ccc2OC1", "372 M⁻¹ s⁻¹"),
]

---

assayed-target: Human rhinovirus A protease (Human rhinovirus sp.)
method-description: Inhibition of Human Rhinovirus 14 (HRV14) Protease 3C
Label key: y means EC50 under 600 nM; n means EC50 of 600 nM or more.

# molecule, class-label
data = [
    ("CCOC(=O)/C=C/[C@H](C[C@@H]1CCNC1=O)NC(=O)c1cc(-c2ccccc2)oc1C", "n"),
    ("CCOC(=O)/C=C/[C@H](C[C@@H]1CCNC1=O)NC(=O)C1=Cc2cc(Cl)ccc2OC1", "y"),
    ("CCOC(=O)/C=C/[C@H](C[C@@H]1CCNC1=O)NC(=O)C1=Cc2ccccc2OC1", "n"),
    ("CCOC(=O)/C=C/[C@H](C[C@@H]1CCNC1=O)NC(=O)/C=C/c1ccc2c(c1)OCO2", "n"),
    ("CCOC(=O)/C=C/[C@H](C[C@@H]1CCNC1=O)NC(=O)/C=C/c1cccc(Br)c1", "n"),
    ("CCOC(=O)/C=C/[C@H](C[C@@H]1CCNC1=O)NC(=O)/C=C/c1ccc(F)c(Br)c1", "n"),
    ("CCOC(=O)/C=C/[C@H](C[C@@H]1CCNC1=O)NC(=O)C1=Cc2cc(Br)ccc2OC1", "y"),
    ("CCOC(=O)/C=C/[C@H](CCC(N)=O)NC(=O)C(Cc1ccccc1)NC(=O)[C@H](CC(C)C)NC(=O)OCc1ccccc1 (stereo partly drawn)", "y"),
    ("CCOC(=O)/C=C/[C@H](C[C@@H]1CCNC1=O)NC(=O)/C=C/c1ccc(C)c(Br)c1", "n"),
    ("CCOC(=O)/C=C/[C@H](C[C@@H]1CCNC1=O)NC(=O)c1ccc2ccccc2c1", "y"),
    ("CCOC(=O)/C=C/[C@H](C[C@@H]1CCNC1=O)NC(=O)c1ccc2cc(C)ccc2c1", "n"),
    ("CCOC(=O)/C=C/[C@H](C[C@@H]1CCNC1=O)NC(=O)c1ccc2ccc(Br)cc2c1", "y"),
    ("CCOC(=O)/C=C/[C@H](C[C@@H]1CCNC1=O)NC(=O)/C=C/c1cc2c(cc1Br)OCO2", "y"),
]

---

assayed-target: Human rhinovirus A protease (Human rhinovirus sp.)
Sequence (Q4U254 whole entry): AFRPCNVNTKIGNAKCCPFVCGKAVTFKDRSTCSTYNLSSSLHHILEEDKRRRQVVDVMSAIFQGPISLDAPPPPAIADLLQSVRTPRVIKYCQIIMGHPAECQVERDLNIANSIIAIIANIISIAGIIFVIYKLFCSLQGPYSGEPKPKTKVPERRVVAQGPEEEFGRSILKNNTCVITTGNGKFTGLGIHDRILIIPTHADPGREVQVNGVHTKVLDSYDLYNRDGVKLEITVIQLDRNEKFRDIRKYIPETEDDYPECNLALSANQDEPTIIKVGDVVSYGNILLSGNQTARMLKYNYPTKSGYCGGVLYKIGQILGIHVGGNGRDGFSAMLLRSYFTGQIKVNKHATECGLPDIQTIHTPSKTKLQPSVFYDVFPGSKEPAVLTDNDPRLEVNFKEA
method-description: 50% effective concentration required to inhibit Human Rhinovirus 89 Protease 3C

# compound, assayed-target, reading-unit, EC50
records = [
    ("CCOC(=O)/C=C/[C@H](CCC(N)=O)NC(=O)C(Cc1ccccc1)NC(=O)[C@H](CC(C)C)NC(=O)OCc1ccccc1 (stereo partly specified)", "Human rhinovirus A protease (Human rhinovirus sp.)", "µM", 6.3),
]

---

assayed-target: Human rhinovirus A protease (Human rhinovirus sp.) (UniProt Q4U254)
Sequence (whole entry): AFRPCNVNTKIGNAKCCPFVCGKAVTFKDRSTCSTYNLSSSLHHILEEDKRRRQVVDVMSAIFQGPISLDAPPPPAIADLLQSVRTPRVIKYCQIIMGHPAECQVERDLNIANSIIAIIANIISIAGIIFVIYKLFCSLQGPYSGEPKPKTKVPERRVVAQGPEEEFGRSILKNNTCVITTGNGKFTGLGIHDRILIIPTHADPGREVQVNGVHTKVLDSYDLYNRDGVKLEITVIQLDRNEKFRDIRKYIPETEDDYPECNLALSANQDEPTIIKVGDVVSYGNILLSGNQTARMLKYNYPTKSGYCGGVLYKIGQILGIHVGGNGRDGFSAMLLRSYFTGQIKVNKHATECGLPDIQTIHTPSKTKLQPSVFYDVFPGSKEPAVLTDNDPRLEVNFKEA
method-description: Rate of inactivation of Human Rhinovirus 14 (HRV14) Protease 3C

# compound, reading-unit, K obs / 1
measured = [
    ("CCOC(=O)/C=C/[C@H](C[C@@H]1CCNC1=O)NC(=O)c1ccc2cc(C)ccc2c1", "M⁻¹ s⁻¹", 5000),
    ("CCOC(=O)/C=C/[C@H](C[C@@H]1CCNC1=O)NC(=O)/C=C/c1ccc(C)c(Br)c1", "M⁻¹ s⁻¹", 4080),
    ("CCOC(=O)/C=C/[C@H](C[C@@H]1CCNC1=O)NC(=O)c1ccc2ccccc2c1", "M⁻¹ s⁻¹", 1090),
    ("CCOC(=O)/C=C/[C@H](C[C@@H]1CCNC1=O)NC(=O)C1=Cc2cc(Br)ccc2OC1", "M⁻¹ s⁻¹", 25000),
    ("CCOC(=O)/C=C/[C@H](CCC(N)=O)NC(=O)C(Cc1ccccc1)NC(=O)[C@H](CC(C)C)NC(=O)OCc1ccccc1 (stereo partly drawn)", "M⁻¹ s⁻¹", 25000),
    ("CCOC(=O)/C=C/[C@H](C[C@@H]1CCNC1=O)NC(=O)c1ccc2ccc(Br)cc2c1", "M⁻¹ s⁻¹", 31400),
    ("CCOC(=O)/C=C/[C@H](C[C@@H]1CCNC1=O)NC(=O)/C=C/c1cc(Br)ccc1Br", "M⁻¹ s⁻¹", 6850),
    ("CCOC(=O)/C=C/[C@H](C[C@@H]1CCNC1=O)NC(=O)C1=Cc2cc(Cl)ccc2OC1", "M⁻¹ s⁻¹", 19700),
    ("CCOC(=O)/C=C/[C@H](C[C@@H]1CCNC1=O)NC(=O)c1cc(-c2ccccc2)oc1C", "M⁻¹ s⁻¹", 4740),
    ("CCOC(=O)/C=C/[C@H](C[C@@H]1CCNC1=O)NC(=O)/C=C/c1ccc2c(c1)OCO2", "M⁻¹ s⁻¹", 1960),
    ("CCOC(=O)/C=C/[C@H](C[C@@H]1CCNC1=O)NC(=O)C1=Cc2ccccc2OC1", "M⁻¹ s⁻¹", 886),
    ("CCOC(=O)/C=C/[C@H](C[C@@H]1CCNC1=O)NC(=O)/C=C/c1cc2c(cc1Br)OCO2", "M⁻¹ s⁻¹", 14400),
    ("CCOC(=O)/C=C/[C@H](C[C@@H]1CCNC1=O)NC(=O)/C=C/c1ccc(F)c(Br)c1", "M⁻¹ s⁻¹", 2860),
]
